Organism: Homo sapiens
Test: Selectivity index, ratio of Ki for human recombinant CB1 receptor to Ki for human recombinant CB2 receptor
READOUT_KIND: Ratio Ki

> print(dat)
                         structure.notation  value.modifier  number
1  C=CCNC(=O)CCCCCCCOc1cc(O)cc(C(C)(C)CCCCCC)c1               =    0.98
2  CCCCCCC(C)(C)c1cc(O)cc(OCCCCCCCCCCC(=O)NC(CO)CO)c1               =    8.22
3  CCCCCc1cc(O)cc(OCCCCCCCCCCC(=O)Nc2ccccc2)c1               >    78.2
4      CCCCCc1cc(O)cc(OCCCCCCCCCCCNC2CC2)c1               =     1.1
5   C=CCNC(=O)CCCCCCCCCCOc1cc(O)cc(CCCCC)c1               =    8.31
6  CCCCCc1cc(O)cc(OCCCCCCCCCCCNCc2ccccc2)c1               =    1.49

----------
Target: Transient receptor potential cation channel subfamily A member 1 (Rattus norvegicus)
Sequence (Q6RI86 whole entry): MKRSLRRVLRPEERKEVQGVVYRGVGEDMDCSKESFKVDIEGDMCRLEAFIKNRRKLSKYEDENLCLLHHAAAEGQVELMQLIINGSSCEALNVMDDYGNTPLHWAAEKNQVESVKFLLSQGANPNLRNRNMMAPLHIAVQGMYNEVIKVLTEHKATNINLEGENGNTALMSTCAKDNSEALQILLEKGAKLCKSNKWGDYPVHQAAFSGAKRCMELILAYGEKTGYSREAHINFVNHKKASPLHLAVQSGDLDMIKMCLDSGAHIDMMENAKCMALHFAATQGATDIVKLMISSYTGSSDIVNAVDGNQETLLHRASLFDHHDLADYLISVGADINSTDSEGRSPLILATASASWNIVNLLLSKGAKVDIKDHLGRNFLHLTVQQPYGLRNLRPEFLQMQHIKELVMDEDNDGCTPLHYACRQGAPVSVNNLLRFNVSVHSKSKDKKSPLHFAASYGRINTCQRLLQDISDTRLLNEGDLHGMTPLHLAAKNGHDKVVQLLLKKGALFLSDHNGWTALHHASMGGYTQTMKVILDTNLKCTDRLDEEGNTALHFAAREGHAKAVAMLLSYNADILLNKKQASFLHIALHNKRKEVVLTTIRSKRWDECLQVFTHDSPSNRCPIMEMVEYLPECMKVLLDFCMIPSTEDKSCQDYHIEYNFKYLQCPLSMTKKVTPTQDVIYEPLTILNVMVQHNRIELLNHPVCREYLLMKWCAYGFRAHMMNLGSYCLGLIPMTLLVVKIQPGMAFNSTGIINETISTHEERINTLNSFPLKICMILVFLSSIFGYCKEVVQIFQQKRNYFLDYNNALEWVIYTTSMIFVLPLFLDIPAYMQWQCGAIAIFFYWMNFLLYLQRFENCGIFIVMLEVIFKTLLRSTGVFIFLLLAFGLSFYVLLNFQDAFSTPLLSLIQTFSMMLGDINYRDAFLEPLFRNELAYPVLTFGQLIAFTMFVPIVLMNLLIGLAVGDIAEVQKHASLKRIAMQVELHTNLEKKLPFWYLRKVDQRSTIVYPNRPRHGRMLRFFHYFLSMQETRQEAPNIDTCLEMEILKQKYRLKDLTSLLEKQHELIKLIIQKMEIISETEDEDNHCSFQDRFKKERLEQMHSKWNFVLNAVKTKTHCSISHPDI
Test: Antagonist activity at rat recombinant TRPA1 expressed in HEK293 cells assessed as reduction in isothiocynate-induced increase in intracellular calcium response by fluorescence assay
pIC50: −log10 of the molar value.
READOUT_KIND: pIC50

> print(dat)
                         structure.notation  number
1  C=CCNC(=O)CCCCCCCOc1cc(O)cc(C(C)(C)CCCCCC)c1    5.13

----------
Molecular target: Cannabinoid receptor 2 (Homo sapiens, UniProt P34972)
Sequence (P34972 whole entry): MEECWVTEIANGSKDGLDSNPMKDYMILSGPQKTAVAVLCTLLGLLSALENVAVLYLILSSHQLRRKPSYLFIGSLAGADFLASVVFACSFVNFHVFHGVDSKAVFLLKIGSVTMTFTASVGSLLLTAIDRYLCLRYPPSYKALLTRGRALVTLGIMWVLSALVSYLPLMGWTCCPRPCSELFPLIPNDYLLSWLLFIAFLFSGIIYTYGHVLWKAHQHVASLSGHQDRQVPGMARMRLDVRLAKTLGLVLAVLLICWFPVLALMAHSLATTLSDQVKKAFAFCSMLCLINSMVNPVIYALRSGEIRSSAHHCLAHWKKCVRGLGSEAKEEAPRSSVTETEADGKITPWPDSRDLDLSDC
Test: Displacement of [3H]CP-55,940 from human recombinant CB2 receptor expressed in HEK293 cell membranes
READOUT_KIND: Ki (nM)

> print(dat)
                         structure.notation                             target.system  readout.kind  value.unit  value.modifier  number
1  CCCCCCC(C)(C)c1cc(O)cc(OCCCCCCCCCCC(=O)NC(CO)CO)c1  Cannabinoid receptor 2 (Homo sapiens, UniProt P34972)            Ki          nM               =     230
2  CCCCCc1cc(O)cc(OCCCCCCCCCCC(=O)NC23CC4CC(CC(C4)C2)C3)c1  Cannabinoid receptor 2 (Homo sapiens, UniProt P34972)            Ki          nM               >   10000
3  CCCCCCc1ccc(OCCCCCCCCCCCNC(=O)C2CC2)cc1O  Cannabinoid receptor 2 (Homo sapiens, UniProt P34972)            Ki          nM               >   10000
4      CCCCCc1cc(O)cc(OCCCCCCCCCCCNC2CC2)c1  Cannabinoid receptor 2 (Homo sapiens, UniProt P34972)            Ki          nM               =    1890

----------
Biological target: Cannabinoid receptor 2 (Homo sapiens, UniProt P34972)
Assay: Displacement of [3H]CP-55,940 from human recombinant CB2 receptor expressed in HEK293 cell membranes
READOUT_KIND: log10(Ki) (log10 of the value in µM)

> print(dat)
                         structure.notation  number
1   CCCCCc1cc(O)cc(OCCCCCCCCCN[C@H](C)CO)c1    0.18
2  CCCCCCc1ccc(O)cc1OCCCCCCCCCCC(=O)NC(CO)CO    0.37
3  CCCCCc1cc(O)cc(OCCCCCCCCCCCNC(=O)C2CC2)c1   -0.34
4  CCCCCCc1ccc(O)cc1OCCCCCCCCCCCNC(=O)C1CC1   -0.60
5  CCCCCc1cc(O)cc(OCCCCCCCCCCC(=O)N[C@H](C)CO)c1   -1.01
6  CCCCCc1cc(O)cc(OCCCCCCCCCCCNCc2ccccc2)c1   -0.08
7       C=CCNCCCCCCCCCCCOc1cc(O)cc(CCCCC)c1    0.27
8  CCCCCc1cc(O)cc(OCCCCCCCCCCC(=O)NN2CCCCC2)c1   -0.17
